Where these numbers come from: paper PMC8582077

Measured pKd by item
- targetOrTestSystem: MERS-CoV Spike S1 protein (Middle East respiratory syndrome …, UniProt K9N5Q8 18-751)
- Sequence (K9N5Q8 18-751): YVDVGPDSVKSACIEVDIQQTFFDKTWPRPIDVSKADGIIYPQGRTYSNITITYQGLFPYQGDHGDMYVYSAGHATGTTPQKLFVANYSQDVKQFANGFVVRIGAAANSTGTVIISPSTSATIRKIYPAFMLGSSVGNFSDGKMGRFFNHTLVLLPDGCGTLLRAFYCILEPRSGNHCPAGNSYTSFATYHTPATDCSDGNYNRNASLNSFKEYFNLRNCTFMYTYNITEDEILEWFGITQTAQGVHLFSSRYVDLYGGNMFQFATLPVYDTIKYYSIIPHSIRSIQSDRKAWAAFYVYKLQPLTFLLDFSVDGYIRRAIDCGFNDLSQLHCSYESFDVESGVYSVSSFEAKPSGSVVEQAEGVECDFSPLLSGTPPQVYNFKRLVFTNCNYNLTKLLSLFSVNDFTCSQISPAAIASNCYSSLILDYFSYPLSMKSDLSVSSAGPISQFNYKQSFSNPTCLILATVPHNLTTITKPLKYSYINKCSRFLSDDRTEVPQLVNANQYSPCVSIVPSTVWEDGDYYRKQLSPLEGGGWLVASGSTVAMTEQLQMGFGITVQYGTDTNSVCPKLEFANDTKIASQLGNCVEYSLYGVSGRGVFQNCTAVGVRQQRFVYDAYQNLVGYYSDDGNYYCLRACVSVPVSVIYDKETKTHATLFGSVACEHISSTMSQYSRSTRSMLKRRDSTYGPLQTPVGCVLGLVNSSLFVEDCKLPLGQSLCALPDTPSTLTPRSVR
- methodDescription: bead-based fluorescence binding assay
In plain terms, pKd is the concentration in mol/L turned into minus its base-10 logarithm.

>  <binder>
S-19 aptamer (ssDNA) DNA: TGACACCGTACCTGCTCTGCACTTCCTTCACCAGAAACCTGCACATCTTCGCCGCGTGAAGCACGCCAAGGGACTAT

>  <pKd>
6.95

$$$$

Continue with the next binder.
Record S-12 aptamer (MERS aptamer-b) (ssDNA) DNA: TGACACCGTACCTGCTCTCCGACCCATCTAGCACTTCACACACGCCCGATCGGATTAGTAAGCACGCCAAGGGACTAT , field pKd: 6.54
